Tested on: MFE-280 (Endometrial Carcinoma)
experimentDescription: combination Emax (second highest fraction inhibited in the dose matrix, 72 h); higher = more inhibition; extreme values may be limits of the assay
valueType: combination Emax

compound	valueType	observedValue
Cc1c2c(nn1C)CSCc1cc(n(C)n1)CSc1cc(c3ccccc3c1)OCCCc1c(C(=O)O)n(C)c3c-2c(Cl)ccc13 [AZD5991] + CCN(CCO)CCCOc1ccc2c(Nc3cc(CC(=O)Nc4cccc(F)c4)[nH]n3)ncnc2c1 [AZD2811] (first compound max 1 µM, 7x7, partner max 1 µM)	combination Emax	0.482

Query :: Tell me the measured combination Emax of Cc1c2c(nn1C)CSCc1cc(n(C)n1)CSc1cc(c3ccccc3c1)OCCCc1c(C(=O)O)n(C)c3c-2c(Cl)ccc13 [AZD5991] + CC(=O)O[C@H]1C(=O)[C@@]2(C)[C@H]([C@H](OC(=O)c3ccccc3)[C@]3(O)C[C@H](OC(=O)[C@H](O)[C@@H](NC(=O)c4ccccc4)c4ccccc4)C(C)=C1C3(C)C)[C@]1(OC(C)=O)CO[C@@H]1C[C@@H]2O [Paclitaxel] (first compound max 1 µM, 7x7, partner max 3 µM) , please.
Result :: 0.574
